SYSTEM: α-amylase (Sus scrofa)
Sequence (P00690 16-511): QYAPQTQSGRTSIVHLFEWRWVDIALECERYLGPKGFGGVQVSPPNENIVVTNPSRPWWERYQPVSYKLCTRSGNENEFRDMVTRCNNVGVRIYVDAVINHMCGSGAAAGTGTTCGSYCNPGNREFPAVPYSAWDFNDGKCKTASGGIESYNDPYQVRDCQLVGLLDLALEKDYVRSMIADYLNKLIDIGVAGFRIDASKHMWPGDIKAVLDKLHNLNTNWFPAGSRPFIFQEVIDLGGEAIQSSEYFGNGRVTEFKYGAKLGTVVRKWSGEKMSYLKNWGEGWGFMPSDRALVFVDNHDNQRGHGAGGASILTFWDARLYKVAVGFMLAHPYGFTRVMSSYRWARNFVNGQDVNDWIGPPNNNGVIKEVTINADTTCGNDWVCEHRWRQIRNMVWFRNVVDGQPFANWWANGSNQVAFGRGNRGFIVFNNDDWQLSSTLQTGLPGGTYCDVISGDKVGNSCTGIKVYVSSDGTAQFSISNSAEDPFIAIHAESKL
ASSAY EXPLANATION: Fluorescence quenching, binding and thermodynamics with α-amylase
MEASUREMENT PARAMETERS: T 310 K
EXPERIMENTAL ENDPOINT: Ksv

smiles_text=Nc1ccc(-c2c3nc(c(-c4ccc(N)cc4)c4ccc([nH]4)c(-c4ccc(N)cc4)c4nc(c(-c5ccc(N)cc5)c5ccc2[nH]5)C=C4)C=C3)cc1 assay_value="3.07 ± 0.09 ×10^4 L/mol"
smiles_text=Oc1ccc(-c2c3nc(c(-c4ccc(O)cc4)c4ccc([nH]4)c(-c4ccc(O)cc4)c4nc(c(-c5ccc(O)cc5)c5ccc2[nH]5)C=C4)C=C3)cc1 assay_value="7.64 ± 0.07 ×10^4 L/mol"
smiles_text=O=C(O)c1ccc(-c2c3nc(c(-c4ccc(C(=O)O)cc4)c4ccc([nH]4)c(-c4ccc(C(=O)O)cc4)c4nc(c(-c5ccc(C(=O)O)cc5)c5ccc2[nH]5)C=C4)C=C3)cc1 assay_value="3.01 ± 0.07 ×10^4 L/mol"
smiles_text=O=C(O)c1ccc(-c2c3nc(c(-c4ccc(C(=O)O)cc4)c4ccc([nH]4)c(-c4ccc(C(=O)O)cc4)c4nc(c(-c5ccc(C(=O)O)cc5)c5ccc2[nH]5)C=C4)C=C3)cc1.[Cu+2] assay_value="4.32 ± 0.02 ×10^4 L/mol"
smiles_text=O=C(O)c1ccc(-c2c3nc(c(-c4ccc(C(=O)O)cc4)c4ccc([nH]4)c(-c4ccc(C(=O)O)cc4)c4nc(c(-c5ccc(C(=O)O)cc5)c5ccc2[nH]5)C=C4)C=C3)cc1.[Ni+2] assay_value="7.11 ± 0.05 ×10^4 L/mol"

====

SYSTEM: α-glucosidase (Saccharomyces cerevisiae)
Sequence (P53341 whole entry): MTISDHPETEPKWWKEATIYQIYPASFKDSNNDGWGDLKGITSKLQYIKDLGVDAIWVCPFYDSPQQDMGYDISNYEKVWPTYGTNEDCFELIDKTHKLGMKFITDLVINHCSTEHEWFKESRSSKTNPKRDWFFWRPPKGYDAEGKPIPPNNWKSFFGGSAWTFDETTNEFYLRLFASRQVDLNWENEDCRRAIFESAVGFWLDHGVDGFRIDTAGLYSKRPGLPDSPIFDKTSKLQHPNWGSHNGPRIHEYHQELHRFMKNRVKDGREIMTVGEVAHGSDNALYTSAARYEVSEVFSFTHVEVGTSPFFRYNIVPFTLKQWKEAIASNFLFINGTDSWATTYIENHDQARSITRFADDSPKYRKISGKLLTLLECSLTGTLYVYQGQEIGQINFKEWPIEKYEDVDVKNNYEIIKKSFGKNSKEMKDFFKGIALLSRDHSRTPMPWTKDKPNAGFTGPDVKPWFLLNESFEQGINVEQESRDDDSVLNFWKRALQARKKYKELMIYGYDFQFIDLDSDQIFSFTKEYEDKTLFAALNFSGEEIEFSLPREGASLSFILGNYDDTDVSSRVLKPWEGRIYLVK
ASSAY EXPLANATION: Fluorescence quenching, binding and thermodynamics with α-glucosidase
MEASUREMENT PARAMETERS: T 310 K
EXPERIMENTAL ENDPOINT: n (number of binding sites)

smiles_text=O=C(O)c1ccc(-c2c3nc(c(-c4ccc(C(=O)O)cc4)c4ccc([nH]4)c(-c4ccc(C(=O)O)cc4)c4nc(c(-c5ccc(C(=O)O)cc5)c5ccc2[nH]5)C=C4)C=C3)cc1.[Cu+2] experimental_endpoint="n (number of binding sites)" assay_value=1.03
smiles_text=O=C(O)c1ccc(-c2c3nc(c(-c4ccc(C(=O)O)cc4)c4ccc([nH]4)c(-c4ccc(C(=O)O)cc4)c4nc(c(-c5ccc(C(=O)O)cc5)c5ccc2[nH]5)C=C4)C=C3)cc1 experimental_endpoint="n (number of binding sites)" assay_value=1.07
smiles_text=Nc1ccc(-c2c3nc(c(-c4ccc(N)cc4)c4ccc([nH]4)c(-c4ccc(N)cc4)c4nc(c(-c5ccc(N)cc5)c5ccc2[nH]5)C=C4)C=C3)cc1 experimental_endpoint="n (number of binding sites)" assay_value=1.01
smiles_text=O=C(O)c1ccc(-c2c3nc(c(-c4ccc(C(=O)O)cc4)c4ccc([nH]4)c(-c4ccc(C(=O)O)cc4)c4nc(c(-c5ccc(C(=O)O)cc5)c5ccc2[nH]5)C=C4)C=C3)cc1.[Ni+2] experimental_endpoint="n (number of binding sites)" assay_value=1.03
smiles_text=Oc1ccc(-c2c3nc(c(-c4ccc(O)cc4)c4ccc([nH]4)c(-c4ccc(O)cc4)c4nc(c(-c5ccc(O)cc5)c5ccc2[nH]5)C=C4)C=C3)cc1 experimental_endpoint="n (number of binding sites)" assay_value=1.16
